Molecular target: T1, FBF-2 RBD+CT Y479A (Caenorhabditis elegans, UniProt Q09312 164-632, Y479A)
T1 sequence: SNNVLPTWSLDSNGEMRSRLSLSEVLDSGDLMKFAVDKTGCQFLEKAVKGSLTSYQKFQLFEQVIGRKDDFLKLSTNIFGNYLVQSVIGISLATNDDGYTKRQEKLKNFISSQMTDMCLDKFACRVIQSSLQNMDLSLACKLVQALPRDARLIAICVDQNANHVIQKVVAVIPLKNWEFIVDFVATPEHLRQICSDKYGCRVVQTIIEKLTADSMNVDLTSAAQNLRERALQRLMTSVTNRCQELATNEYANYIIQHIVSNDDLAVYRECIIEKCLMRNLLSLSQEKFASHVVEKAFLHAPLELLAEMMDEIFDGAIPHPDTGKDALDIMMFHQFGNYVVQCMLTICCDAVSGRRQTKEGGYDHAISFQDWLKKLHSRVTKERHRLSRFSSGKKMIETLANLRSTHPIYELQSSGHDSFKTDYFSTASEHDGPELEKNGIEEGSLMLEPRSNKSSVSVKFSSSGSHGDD
Assay: EMSA; no LST-1; EMSA: FBF-2 in 20 mM HEPES pH 7.4, 150 mM NaCl, 0.5 mM TCEP mixed 1:1 with 5 nM final RNA in 10 mM HEPES pH 7.4, 0.01% Tween 20, 0.1 mg/ml BSA, 0.1 mg/ml yeast
Details: protein: recombinant; tags: none (His6-SUMO removed with Ulp1); label: 3'-Cy5
Endpoint: pKd
Recall that pKd is obtained by taking minus log10 of the concentration measured in molar.

# pKd of AUCAUGUGCCAUAC (ssRNA) [gld-1 FBEa RNA (EMSA)] = 7.21
